# Experimental Target: GST-tagged-Wee1 kinase (Homo sapiens)
# Assay Overview: Wee1 time-resolved fluorescence equilibrium binding assay (displacement of Oregon Green-labeled ATP-competitive kinase probe)
For each of the molecules below, state its log10 Ki.
Record value = log10 of Ki given in nM.

>>> print(df.to_string())
                                   molecule  endpoint_value
0  C=CCn1nc(-c2cccs2)c2nc(Nc3ccc(CN(C)C)cc3)ncc2c1=O            1.52
1  CC1(C)CNCc2cc(Nc3ncc4c(=O)n(-c5ccncc5)nc(-c5ccccn5)c4n3)ccc21            1.53
2  CN1CCN(c2ccc(Nc3ncc4c(=O)n(-c5ccccc5)nc(-c5ccc(-c6ncccn6)cc5)c4n3)cc2)CC1            0.48
3  CN1CCN(c2ccc(Nc3ncc4c(=O)n(-c5c(Cl)cccc5Cl)nc(-c5cccc(C(=O)N6CCC6)c5)c4n3)cc2)CC1           -1.00
4  Cc1ccccc1-n1nc(-c2cccs2)c2nc(Nc3ccc4c(c3)CN(C)CC43CC3)ncc2c1=O           -0.40
5  CNCCn1ccc(-c2nn(-c3c(Cl)cccc3Cl)c(=O)c3cnc(Nc4ccc(N5CCN(C)CC5)cc4)nc23)n1           -0.52

Parameters: items (list). Returns: log10 Ki for each item.
1. CC(=O)N1Cc2cc(Nc3ncc4c(=O)n(-c5c(Cl)cccc5Cl)nc(-c5ccccn5)c4n3)ccc2C2(CC2)C1
2. C=CCn1nc(-c2ccco2)c2nc(Nc3ccc(N4CCCN(C(C)C)CC4)c(C)c3)ncc2c1=O
3. COC(=O)c1ccc(-c2nn(-c3c(Cl)cccc3Cl)c(=O)c3cnc(Nc4ccc(N5CCN(C)CC5)cc4)nc23)cc1
4. Cc1nn(-c2c(Cl)cccc2Cl)c(=O)c2cnc(Nc3cccc(OC4CCN(C)CC4)c3)nc12
5. C=CCn1nc(-c2ccco2)c2nc(Nc3ccc(CN(C)C)cc3)ncc2c1=O

[out]
0.08
0.48
0.08
-0.44
1.34

====

# Experimental Target: GST-tagged-Wee1 kinase (Homo sapiens, UniProt P30291)
# Sequence (P30291 whole entry): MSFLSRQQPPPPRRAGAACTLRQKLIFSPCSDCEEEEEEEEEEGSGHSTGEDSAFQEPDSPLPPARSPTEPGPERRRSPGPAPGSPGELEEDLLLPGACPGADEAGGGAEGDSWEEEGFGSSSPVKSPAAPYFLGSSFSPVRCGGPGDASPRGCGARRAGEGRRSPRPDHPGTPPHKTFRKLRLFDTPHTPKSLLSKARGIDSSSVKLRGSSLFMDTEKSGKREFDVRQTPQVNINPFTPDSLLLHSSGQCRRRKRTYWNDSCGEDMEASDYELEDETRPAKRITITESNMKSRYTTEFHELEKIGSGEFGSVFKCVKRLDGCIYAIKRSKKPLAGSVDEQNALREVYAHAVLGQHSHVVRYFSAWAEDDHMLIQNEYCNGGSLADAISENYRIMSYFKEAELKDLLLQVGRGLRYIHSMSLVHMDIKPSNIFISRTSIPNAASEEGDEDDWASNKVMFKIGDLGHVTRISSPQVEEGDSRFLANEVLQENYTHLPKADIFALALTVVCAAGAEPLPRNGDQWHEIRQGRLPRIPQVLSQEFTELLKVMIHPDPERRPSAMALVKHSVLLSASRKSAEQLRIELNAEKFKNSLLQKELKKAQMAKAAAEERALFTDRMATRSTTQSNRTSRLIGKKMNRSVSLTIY
# Assay Overview: Wee1 time-resolved fluorescence equilibrium binding assay (displacement of Oregon Green-labeled ATP-competitive kinase probe)
Parameter: Ki (nM)
Answers are plain numbers, in nM.

Field: example entries. Status: answers known.
>>> df
                                   compound  parameter  endpoint_value
0  CN1CCN(c2ccc(Nc3ncc4c(=O)n(-c5c(Cl)cccc5Cl)nc(-c5cccc(C(=O)N(C)C)c5)c4n3)cc2)CC1         Ki            0.02
1  C=CCn1nc(-c2ccc(-c3ncccn3)cc2)c2nc(Nc3ccc(N4CCN(C)CC4)cc3)ncc2c1=O         Ki              11
2  COCn1ccc(-c2nn(-c3c(Cl)cccc3Cl)c(=O)c3cnc(Nc4ccc(N5CCN(C)CC5)cc4)nc23)n1         Ki             0.1
3  CN1CCN(c2ccc(Nc3ncc4c(=O)n(-c5c(Cl)cccc5Cl)nc(-c5nccs5)c4n3)cc2)CC1         Ki             1.8
4  CN1Cc2cc(Nc3ncc4c(=O)n(-c5c(Cl)cncc5Cl)nc(-c5cn(C)cn5)c4n3)ccc2C2(CC2)C1         Ki               5
5  O=c1c2cnc(Nc3ccc(C4CCNC4)cc3)nc2c(C(F)(F)F)nn1-c1c(Cl)cccc1Cl (centres unmarked)         Ki             0.4

Batch: Ki for all items listed.
1. CN1CCc2ccc(Nc3ncc4c(=O)n(-c5ccccc5Cl)nc(-c5ccccc5)c4n3)cc2C1
2. Cn1cnc(-c2nn(-c3ncccc3Cl)c(=O)c3cnc(Nc4ccc(N5CCNCC5)cc4)nc23)c1
3. C=CCn1nc(-c2ccco2)c2nc(Nc3ccc4c(c3)CN(C)CC43CC3)ncc2c1=O
4. CN1CCN(c2ccc(Nc3ncc4c(=O)n(-c5ccccc5)nc(-c5cccc(F)c5)c4n3)cc2)CC1
5. CN1CCN(c2ccc(Nc3ncc4c(=O)n(-c5c(Cl)cccc5Cl)nc(-c5ccnc(C(C)(C)O)c5)c4n3)cc2)CC1
6. CC(C)n1nc(-c2ccccn2)c2nc(Nc3ccc(N4CCN(C)CC4)cc3)ncc2c1=O
7. O=c1c2cnc(Nc3ccc4c(c3)CNCC4)nc2c(-c2cnccn2)nn1-c1c(Cl)cccc1Cl

[out]
1. 0.7
2. 1.8
3. 2
4. 9
5. 0.2
6. 100
7. 0.2

Go through the list and state Ki for each entry.
1. Cc1cc(Nc2ncc3c(=O)n(-c4ccccc4C)nc(-c4ccco4)c3n2)ccc1N1CCN(C(C)C)CC1
2. CN1CCN(c2ccc(Nc3ncc4c(=O)n(-c5ccccc5Cl)nc(-c5cccnc5Cl)c4n3)cc2)CC1
3. CN1Cc2cc(Nc3ncc4c(=O)n(-c5c(Cl)cccc5Cl)nc(-c5cnn(C)c5)c4n3)ccc2C2(CC2)C1

[out]
3
27
0.05
